Measured TGI, listed per entry for reference.
- System: HL-60(TB) leukemia
- assay-method-text: NCI tumour cell line growth inhibition, 48 h
experimental-endpoint: TGI

# molecule, measured-target, result
measured = [
    ("COc1cc([C@@H]2OCC3C(c4ccc5c(c4)OCO5)OCC32)cc(OC)c1OC (stereo partly specified)", "HL-60(TB) leukemia", "> 100 µM"),
    ("Clc1cc(OC2C3CC4CC(C3)CC2C4)nc(Cl)n1 (stereo unspecified)", "HL-60(TB) leukemia", "12.9 µM"),
    ("Oc1ccc(-c2nc(-c3cccnc3)c(-c3ccc(F)cc3)[nH]2)cc1", "HL-60(TB) leukemia", "52 µM"),
    ("COc1ccc(C(=O)Cn2c(C(=O)c3ccccc3)nc(-c3ccc(OC)cc3)c2-c2ccc(OC)cc2)cc1", "HL-60(TB) leukemia", "> 100 µM"),
    ("CCC[C@@H](O)C[C@@H]1CCC[C@H](C[C@@H](O)CC)N1C", "HL-60(TB) leukemia", "> 100 µM"),
    ("O=C1c2ccccc2C2C1N2C(=O)C(F)(F)F (stereo unspecified)", "HL-60(TB) leukemia", "91.5 µM"),
    ("COc1cc2c(cc1OC)-c1c3cc(O)ccc3nn[n+]1CC2", "HL-60(TB) leukemia", "> 100 µM"),
    ("Cc1cccc2c(=O)cc(-c3ccccc3)[nH]c12", "HL-60(TB) leukemia", "> 100 µM"),
    ("O=C1/C(=C/c2ccc(O)cc2)CC/C1=C\\c1ccc(O)cc1", "HL-60(TB) leukemia", "34.5 µM"),
    ("Clc1ccc(/C=C/c2nc3ccccc3s2)cc1Cl", "HL-60(TB) leukemia", "> 100 µM"),
    ("c1ccc2cc(-c3cc(-c4cc(-c5ccc6ccccc6c5)on4)no3)ccc2c1", "HL-60(TB) leukemia", "> 100 µM"),
]
